Biological target: human OX2R (Homo sapiens)
Sequence (O43614 whole entry): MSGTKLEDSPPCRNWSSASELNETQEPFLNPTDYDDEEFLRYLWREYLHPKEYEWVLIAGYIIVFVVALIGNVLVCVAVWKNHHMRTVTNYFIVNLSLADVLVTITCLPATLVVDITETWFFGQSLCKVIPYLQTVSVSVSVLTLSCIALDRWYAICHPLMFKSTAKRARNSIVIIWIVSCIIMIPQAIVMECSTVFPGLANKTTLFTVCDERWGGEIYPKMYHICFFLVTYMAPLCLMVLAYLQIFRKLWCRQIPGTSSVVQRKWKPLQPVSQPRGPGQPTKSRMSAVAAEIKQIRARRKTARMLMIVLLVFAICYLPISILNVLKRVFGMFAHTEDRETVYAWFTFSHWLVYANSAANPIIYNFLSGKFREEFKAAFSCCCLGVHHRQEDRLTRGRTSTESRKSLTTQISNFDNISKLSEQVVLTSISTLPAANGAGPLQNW
Assay: Evaluation of OX2R agonist activity (intracellular calcium, CHO-K1 cells with forced expression of human OX2R)
Details: CHO-K1 cells expressing human OX2R; 100% = 5 µM of the reference compound; read-out: hOX2R EC50
Protocol: Evaluation of OX2R agonist activity Chinese Hamster Ovary K1 (CHO-K1) cells (GenScript) with forced expression of human OX2R were seeded onto a 384 well microplate (Corning) at 7500 cells/well and cultured for 24 hours. […] The difference between the maximum and minimum fluorescence values between 5 and 7 seconds after the addition of the test compound or reference compound was used as the indicator. […]
Labelling: EC50 reported below 70 nM becomes Met; at or above becomes Not met.

[[record]]
compound = "[2H][C@](C)(O)C(=O)N1C2CC(F)(C2)[C@H](NS(C)(=O)=O)[C@@H]1Cc1cccc(-c2ccccc2)c1F"
label_value = "Met"

[[record]]
compound = "CN(C)S(=O)(=O)N[C@H]1C2CC(C2)N(C(=O)C(C)(C)O)[C@H]1Cc1cccc(-c2cc(F)cc(F)c2)c1F (single isomer, unassigned)"
label_value = "Not met"

[[record]]
compound = "CC(C)NC(=O)N1C2CC(C2)[C@H](NS(C)(=O)=O)[C@@H]1Cc1cccc(-c2cc(F)cc(F)c2)c1F"
label_value = "Not met"

[[record]]
compound = "C[C@@H](O)C(=O)N1C2CC(C2)[C@H](NS(C)(=O)=O)[C@@H]1Cc1cccc(-c2cccc(OC(F)(F)F)c2)c1F"
label_value = "Met"

[[record]]
compound = "CS(=O)(=O)N[C@@H]1[C@H](Cc2cccc(-c3ccccc3)c2F)N(C(=O)c2cocn2)C2CC1(F)C2"
label_value = "Not met"

[[record]]
compound = "CS(=O)(=O)N[C@H]1C2CC(C2)N(C(=O)C2(C#N)CC2)[C@H]1Cc1cccc(-c2cc(F)cc(F)c2)c1F"
label_value = "Not met"

[[record]]
compound = "CNC(=O)N1C2CC(C2)[C@H](NS(C)(=O)=O)[C@@H]1Cc1cccc(-c2cc(F)cc(F)c2)c1F"
label_value = "Met"

[[record]]
compound = "CC(C)(O)C(=O)N1C2CC(F)(C2)[C@H](NS(C)(=O)=O)[C@@H]1Cc1cccc(-c2ccccc2)c1F"
label_value = "Met"

[[record]]
compound = "CS(=O)(=O)N[C@H]1C2CC(C2)N(C(=O)CO)[C@H]1Cc1cccc(-c2cc(F)cc(F)c2)c1F"
label_value = "Not met"

